Numbers sourced from PubChem BioAssay AID493086.

target: Induced myeloid leukemia cell differentiation protein Mcl-1 (Homo sapiens) (UniProt Q07820); assay: MCL1 binding to BIM-BH3 peptide, inhibitors, late-stage follow-up, biochemical, fluorescence polarization, assay provider data, powder samples (AID 493086); conditions: GST-MCL1 / FITC-BIM-BH3 fluorescence polarization
Sequence (Q07820 whole entry, looked up): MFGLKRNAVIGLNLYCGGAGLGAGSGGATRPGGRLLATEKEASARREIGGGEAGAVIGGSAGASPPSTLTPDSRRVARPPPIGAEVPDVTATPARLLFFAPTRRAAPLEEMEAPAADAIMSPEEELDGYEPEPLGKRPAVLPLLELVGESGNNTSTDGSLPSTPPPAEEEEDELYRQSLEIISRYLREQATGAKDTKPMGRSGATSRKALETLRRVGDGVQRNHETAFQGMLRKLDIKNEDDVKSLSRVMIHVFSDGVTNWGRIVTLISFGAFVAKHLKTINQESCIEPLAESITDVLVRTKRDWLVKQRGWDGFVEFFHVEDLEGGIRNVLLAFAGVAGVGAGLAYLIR
Active and inactive are the calls of the source.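 Rule for the calls: active = IC50 at or below 10 µM; inactive = IC50 above 10 µM.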
RECORDED METRIC: IC50

Field: example entries. Status: answers known.
# COMPOUND, IC50
rows = [
    ("O=C(Nc1nccs1)c1cc(-c2ccco2)nc2ccccc12", "inactive"),
    ("CN(CCOc1ccc(Cl)cc1)C(=O)c1cc(-c2ccco2)nc2ccccc12", "> 20 µM (inactive)"),
    ("Cc1ccc(-c2cc(C(=O)Nc3cccnc3)c3ccccc3n2)o1", "inactive"),
    ("CC(=O)N1CCN(C(=O)c2cc(-c3ccc(C)o3)nc3ccccc23)CC1", "> 20 µM (inactive)"),
    ("COc1ccc(Cc2nnc(NC(=O)C(F)c3ccccc3)s2)cc1OC (centres undefined)", "> 20 µM (inactive)"),
    ("O=C(NC(=S)Nc1cccc(S(=O)(=O)NC2=NCCC2)c1)c1cc(-c2ccco2)nc2ccccc12", "> 20 µM (inactive)"),
    ("CCOC(=O)c1cc(-c2ccco2)nc2c1c(C)nn2-c1cccc(Cl)c1", "> 20 µM (inactive)"),
    ("COc1ccc(Cc2nnc(NC(=O)Cc3sc(=S)[nH]c3C)s2)cc1OC", "> 20 µM (inactive)"),
]

I'd like to know its IC50. The compound in question is `O=C(Nc1ccccc1N1CCOCC1)c1cc(-c2ccco2)nc2ccccc12`
inactive

May I ask what IC50 has been recorded for `COc1ccc(NC(=O)c2cc(-c3ccc(C)o3)nc3ccccc23)cc1` ?
> 20 µM (inactive)

###

target: Induced myeloid leukemia cell differentiation protein Mcl-1 (Homo sapiens); assay: MCL1 binding to BIM-BH3 peptide, inhibitors, late-stage follow-up, biochemical, fluorescence polarization, assay provider data, powder samples (AID 493086); details: GST-MCL1 / FITC-BIM-BH3 fluorescence polarization
The source made the active and inactive calls.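 How the source made its calls: active means IC50 at or below 10 µM; inactive means IC50 above 10 µM.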
Return exactly one item of YES = active, NO = inactive

# TEST SMILES, LABEL
data = [
    ("CCCCn1c(N)c(N(CCC(C)C)C(=O)c2cc(-c3ccco3)nc3ccccc23)c(=O)[nH]c1=O", "NO"),
]

Just curious, what result did `COc1ccccc1CC(=O)Nc1nnc(Cc2ccc(OC)c(OC)c2)s1` get here?
NO

Kindly provide the recorded test outcome for the following compound: `COc1ccc(Cc2nnc(NC(=O)Cc3ccc(-c4ccccc4)cc3)s2)cc1OC`
NO

# fetch the recorded call for `CCCCN(C(=O)c1cc(-c2ccco2)nc2ccccc12)c1c(N)n(CCCC)c(=O)[nH]c1=O` here
NO

Assay result, entry `O=C(Nc1cccc(S(=O)(=O)NC2=NCCCCC2)c1)c1cc(-c2ccco2)nc2ccccc12` — outcome?
NO

Name the outcome recorded for `COc1cccc(NC(=O)CN(C)C(=O)c2cc(-c3ccc(C)o3)nc3ccccc23)c1` in the assay.
NO

Dear colleague, could you share the recorded outcome for `COc1ccc(Cc2nnc(NC(=O)Cc3csc4ccccc34)s2)cc1OC` when you have a moment?
NO

// param item: `CCCn1c(N)c(N(CCOC)C(=O)c2cc(-c3ccco3)nc3ccccc23)c(=O)[nH]c1=O` ; yields the recorded call
NO

Hey, what did the test say about `COCCN(C(=O)c1cc(-c2ccco2)nc2ccccc12)c1c(N)n(Cc2ccccc2)c(=O)[nH]c1=O` ?
YES

What outcome does the record of this test show for `COc1ccc(Cc2nnc(NC(=O)Cc3ccc4ccccc4c3)s2)cc1OC` ?
NO

// outcome(item) with item = `Cc1csc(NC(=O)c2cc(-c3ccco3)nc3ccccc23)n1`
NO
